Experiment: Oral availability in rats, inhibitor concentration in plasma
Format: in vivo
Conditions: rat, plasma, 12.5 mg; oral gavage, rats, elimination half life; read-out: Oral Availability t1/2 (rats)
value-kind: half-life (h)
Write the number in h without appending the unit.

stdin: Request the reported half-life associated with Cn1cnc(S(=O)(=O)N(CCN(Cc2cncn2C)c2ccc(C#N)cc2)Cc2ccccc2)c1
stdout: 1.6

====

Field: IC50. Provide a value for each of the compounds that follow.
Biological target: Rat FTase (Rattus norvegicus, UniProt Q02293+Q04631)
Assay: Rat farnesyltransferase IC50 determination
Details: concentration decreasing transferase activity twofold
Enter your answer as a number in nM; do not include the unit.

stdin: What value of IC50 has been recorded for this entry: Cn1cncc1CN(CCN(Cc1ccccc1)S(=O)(=O)c1ccccc1)c1ccc(C#N)cc1 [Compound 8e]
stdout: 13

stdin: // next record Cn1cnc(S(=O)(=O)N(CCN(Cc2cncn2C)c2ccc(C#N)cc2)CC2CCCCC2)c1 [Compound 8q]
stdout: 7.5

stdin: Continue with Cc1ccccc1CN(CCN(Cc1cncn1C)c1ccc(C#N)cc1)S(=O)(=O)c1cn(C)cn1 [Compound 8x]
stdout: 15.5

stdin: And then Cn1cnc(S(=O)(=O)N(CCN(Cc2cncn2C)c2ccc(Br)cc2)Cc2ccccc2)c1 [Compound 8b] , what is it?
stdout: 290

====

Molecular target: PfPFT (Plasmodium falciparum, UniProt Q8I503+Q8IHP6)
Sequence (Q8I503 1-521): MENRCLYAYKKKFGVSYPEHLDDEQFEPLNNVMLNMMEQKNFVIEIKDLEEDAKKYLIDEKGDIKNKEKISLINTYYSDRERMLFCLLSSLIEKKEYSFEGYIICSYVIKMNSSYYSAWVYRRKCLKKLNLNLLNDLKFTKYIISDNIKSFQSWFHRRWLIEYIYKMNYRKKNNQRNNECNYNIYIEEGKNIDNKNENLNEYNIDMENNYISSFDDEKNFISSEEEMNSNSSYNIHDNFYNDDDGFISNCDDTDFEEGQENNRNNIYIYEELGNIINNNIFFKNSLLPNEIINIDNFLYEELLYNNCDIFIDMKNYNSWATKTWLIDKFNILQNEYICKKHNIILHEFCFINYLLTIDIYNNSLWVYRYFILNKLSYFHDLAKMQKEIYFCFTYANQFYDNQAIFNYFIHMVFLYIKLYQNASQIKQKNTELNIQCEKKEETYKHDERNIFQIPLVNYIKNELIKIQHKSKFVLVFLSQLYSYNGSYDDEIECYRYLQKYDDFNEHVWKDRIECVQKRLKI
Sequence (Q8IHP6 1-923): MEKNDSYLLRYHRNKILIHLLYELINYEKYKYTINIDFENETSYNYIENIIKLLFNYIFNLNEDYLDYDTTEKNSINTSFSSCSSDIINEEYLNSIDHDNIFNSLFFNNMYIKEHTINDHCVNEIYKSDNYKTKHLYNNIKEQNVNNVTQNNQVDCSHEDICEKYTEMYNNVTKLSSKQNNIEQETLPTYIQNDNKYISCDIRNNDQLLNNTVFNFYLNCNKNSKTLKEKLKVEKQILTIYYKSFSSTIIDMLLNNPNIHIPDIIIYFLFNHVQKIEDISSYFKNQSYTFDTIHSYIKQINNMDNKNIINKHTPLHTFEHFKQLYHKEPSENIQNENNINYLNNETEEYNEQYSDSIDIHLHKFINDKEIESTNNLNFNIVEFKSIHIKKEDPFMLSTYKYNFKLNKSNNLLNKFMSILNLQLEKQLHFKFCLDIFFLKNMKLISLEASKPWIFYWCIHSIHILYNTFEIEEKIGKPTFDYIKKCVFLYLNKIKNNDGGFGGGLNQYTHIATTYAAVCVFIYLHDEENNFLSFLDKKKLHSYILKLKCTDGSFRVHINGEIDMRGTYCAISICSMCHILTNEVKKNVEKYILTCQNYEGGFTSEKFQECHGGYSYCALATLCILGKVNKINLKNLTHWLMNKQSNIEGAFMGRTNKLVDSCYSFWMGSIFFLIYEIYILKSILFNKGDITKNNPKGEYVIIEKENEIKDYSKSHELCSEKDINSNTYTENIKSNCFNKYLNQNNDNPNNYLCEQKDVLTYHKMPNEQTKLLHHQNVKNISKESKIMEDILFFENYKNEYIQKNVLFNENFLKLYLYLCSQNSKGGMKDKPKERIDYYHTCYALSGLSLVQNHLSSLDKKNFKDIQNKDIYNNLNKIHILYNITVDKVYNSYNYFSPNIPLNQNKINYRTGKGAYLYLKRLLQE
Experiment: PfPFT inhibition, scintillation proximity assay with partially purified PfPFT
Type: biochemical
Conditions: ratio of rat to Plasmodium PFT activity
value-kind: Selectivity
Form: value (number only, do not type unit).

stdin: Reported Selectivity, molecule Cn1cncc1CN(CCN(Cc1ccccc1)S(=O)(=O)c1ccccc1)c1ccc(C#N)cc1 [Compound 8e] : ____
stdout: 1.5

stdin: What would you report for Cn1cnc(S(=O)(=O)N(CCN(Cc2cncn2C)c2ccc(C#N)cc2)CC2CCCCC2)c1 [Compound 8q] ?
stdout: 1.7

stdin: Now consider CN(C)c1cccc2c(S(=O)(=O)N(CCN(Cc3cncn3C)c3ccc(C#N)cc3)Cc3ccccc3)cccc12 [Compound 8i] .
stdout: 3.3

stdin: // repeat for Cn1cnc(S(=O)(=O)N(CCN(Cc2cncn2C)c2ccc(C#N)cc2)Cc2ccc(C#N)cc2)c1 [Compound 8ae] and report
stdout: 3.7

stdin: Do the same for Cn1cnc(S(=O)(=O)N(CCN(Cc2cncn2C)c2ccc(C#N)cc2)Cc2ccc(-c3ccccc3)cc2)c1 [Compound 8ag] please
stdout: 3.7
